- test details: self-splicing fitness, log relative to wild type (ln ratio); higher = more splicing; Tetrahymena group I intron in knt gene, E. coli kanamycin selection, DiMSum; sequences stand for … in CUCUCU…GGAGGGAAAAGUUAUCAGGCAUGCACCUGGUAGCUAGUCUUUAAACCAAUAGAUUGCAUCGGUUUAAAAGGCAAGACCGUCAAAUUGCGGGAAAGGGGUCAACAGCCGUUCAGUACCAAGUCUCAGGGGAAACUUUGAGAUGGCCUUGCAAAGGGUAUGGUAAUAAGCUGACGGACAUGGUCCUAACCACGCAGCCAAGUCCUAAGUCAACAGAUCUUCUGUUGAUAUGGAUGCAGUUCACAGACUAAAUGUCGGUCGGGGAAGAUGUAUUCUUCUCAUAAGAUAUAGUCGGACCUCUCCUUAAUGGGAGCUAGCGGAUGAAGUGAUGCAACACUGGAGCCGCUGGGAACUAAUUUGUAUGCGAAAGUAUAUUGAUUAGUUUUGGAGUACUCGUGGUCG;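 note: selection with 25 µg/mL kanamycin versus none on LB agar overnight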
- details: 30 °C
Overview of recorded self-splicing fitness (ln) for various sequences

Below, each entry is followed by its recorded self-splicing fitness (ln) result.
sequence string | self-splicing fitness (ln)
UUAAAGCAAUAUUACGUGGU | -3.26
CUCAAGCAAUAUUACGACGA | -3.03
GUGGAGCAAUAUUACGCUCG | -1.35

Prompt line: Reported self-splicing fitness (ln), sequence GAAGAGCAAUAUUACGUCGU : ____
Response line: -2.96

Prompt line: Consider next the sequence GUGUAGCAAUAUUACGUGUG in the same way.
Response line: -3.21

Prompt line: Could you do the same for GAGUAGCAAUAUUACGGUUA , please?
Response line: -0.885

Prompt line: Would you kindly repeat that for GAUUAGCAAUAUUACGGUGA ?
Response line: -1.31

Prompt line: Another sequence to look at: CCAGAGCAAUAUUACGAUGU
Response line: -3.69

Prompt line: And UCUUAGCAAUAUUACGUGUU ?
Response line: -2.67

Prompt line: Likewise for CCCAAGCAAUAUUACGUCAC ?
Response line: -3.87

Prompt line: Also GCCUAGCAAUAUUACGUUGC , if possible.
Response line: -1.05

Prompt line: // same read-out, input: GACUAGCAAUAUUACGCUCC
Response line: -3.46

Prompt line: Now give it for AGCCAGCAAUAUUACGCUCA too.
Response line: -1.83

Prompt line: What would you report for UGUAAGCAAUAUUACGUUAU ?
Response line: -3.54

Prompt line: Now try CUGCAGCAAUAUUACGACAU .
Response line: -1.04

Prompt line: Thanks! And UCAGAGCAAUAUUACGGGUA ?
Response line: -3.47

Prompt line: Same question, UAGUAGCAAUAUUACGCGUC this time
Response line: -3.22

Prompt line: Entry AGCCAGCAAUAUUACGGUAG please
Response line: -2.6

Prompt line: Next record, please: ACUAAGCAAUAUUACGGAAA
Response line: -2.78

Prompt line: Another sequence to check: AGUAAGCAAUAUUACGAGUG
Response line: -3.01

Prompt line: Then what about the sequence UCCGAGCAAUAUUACGGGAC ?
Response line: -3.59

Prompt line: GAAAAGCAAUAUUACGUGGG , same question.
Response line: -3.69

Prompt line: Follow-up item: AACUAGCAAUAUUACGACGU
Response line: -0.165

Prompt line: Follow-up entry: GGCCAGCAAUAUUACGUGUA
Response line: -2.41

----------
- test details: self-splicing fitness, log relative to wild type (ln ratio); higher = more splicing; Tetrahymena group I intron in knt gene, E. coli kanamycin selection, DiMSum; sequences stand for … in CUCUCU…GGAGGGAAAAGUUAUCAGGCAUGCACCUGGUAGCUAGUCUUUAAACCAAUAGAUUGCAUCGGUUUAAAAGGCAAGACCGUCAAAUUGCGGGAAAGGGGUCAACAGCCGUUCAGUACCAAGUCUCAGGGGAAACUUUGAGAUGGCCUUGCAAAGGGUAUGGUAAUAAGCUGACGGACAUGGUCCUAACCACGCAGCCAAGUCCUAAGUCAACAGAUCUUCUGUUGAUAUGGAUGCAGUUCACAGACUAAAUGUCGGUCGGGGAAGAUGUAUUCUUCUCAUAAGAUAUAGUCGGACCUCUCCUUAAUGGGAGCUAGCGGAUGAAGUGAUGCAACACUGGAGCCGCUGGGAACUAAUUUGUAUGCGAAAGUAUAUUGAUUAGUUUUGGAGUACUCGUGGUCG
- details: 37 °C
self-splicing fitness (ln) reference
Just the number, please, no unit after it.

sequence string | self-splicing fitness (ln)
UCUUAGCAAUAUUACGAAGC | -2.05
UAUAAGCAAUAUUACGUCGC | -2.24
UUGGAGCAAUAUUACGAUCA | -0.451
UCGGAGCAAUAUUACGUGGG | -3.22
CUACAGCAAUAUUACGUUCA | -0.865

Prompt line: Name the reported self-splicing fitness (ln) value associated with the sequence AGCGAGCAAUAUUACGGUGC
Response line: -2.97

Prompt line: Next: AGGGAGCAAUAUUACGUCAG
Response line: -2.97

Prompt line: Also, UCUGAGCAAUAUUACGGGUG please.
Response line: -2.42

Prompt line: Also GCGCAGCAAUAUUACGCUUG ?
Response line: -1.06

Prompt line: Queued: GUACAGCAAUAUUACGUUAU
Response line: -1.87

Prompt line: Field entry: AAAGAGCAAUAUUACGCUUC
Response line: -3.01

----------
Parameter self-splicing fitness (ln): see the listing below.
- test details: self-splicing fitness, log relative to wild type (ln ratio); higher = more splicing; Tetrahymena group I intron in knt gene, E. coli kanamycin selection, DiMSum; sequences stand for … in CUCUCU…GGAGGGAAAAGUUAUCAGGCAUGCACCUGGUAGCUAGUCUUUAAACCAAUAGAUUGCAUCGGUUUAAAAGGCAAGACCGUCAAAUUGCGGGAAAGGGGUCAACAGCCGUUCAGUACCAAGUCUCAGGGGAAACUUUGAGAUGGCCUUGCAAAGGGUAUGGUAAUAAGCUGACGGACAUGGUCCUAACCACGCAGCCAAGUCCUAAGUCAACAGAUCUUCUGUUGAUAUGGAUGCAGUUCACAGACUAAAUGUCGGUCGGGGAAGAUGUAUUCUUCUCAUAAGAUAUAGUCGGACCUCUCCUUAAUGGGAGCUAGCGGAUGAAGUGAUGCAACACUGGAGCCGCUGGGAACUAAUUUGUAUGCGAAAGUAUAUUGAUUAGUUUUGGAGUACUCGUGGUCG
- details: 37 °C
Give your answer as a number; write no unit.

sequence string | property label | result number
UGCAAGCAAUAUUACGAGUU | self-splicing fitness (ln) | -0.67

Prompt line: Using the record for UCAGAGCAAUAUUACGGGUA , report its self-splicing fitness (ln).
Response line: -2.64

Prompt line: // next record CACCAGCAAUAUUACGACCU
Response line: -1.35

Prompt line: Next sequence up: UCUUAGCAAUAUUACGGGAG
Response line: -2.41

----------
- test details: self-splicing fitness, log relative to wild type (ln ratio); higher = more splicing; Tetrahymena group I intron in knt gene, E. coli kanamycin selection, DiMSum; sequences stand for … in CUCUCU…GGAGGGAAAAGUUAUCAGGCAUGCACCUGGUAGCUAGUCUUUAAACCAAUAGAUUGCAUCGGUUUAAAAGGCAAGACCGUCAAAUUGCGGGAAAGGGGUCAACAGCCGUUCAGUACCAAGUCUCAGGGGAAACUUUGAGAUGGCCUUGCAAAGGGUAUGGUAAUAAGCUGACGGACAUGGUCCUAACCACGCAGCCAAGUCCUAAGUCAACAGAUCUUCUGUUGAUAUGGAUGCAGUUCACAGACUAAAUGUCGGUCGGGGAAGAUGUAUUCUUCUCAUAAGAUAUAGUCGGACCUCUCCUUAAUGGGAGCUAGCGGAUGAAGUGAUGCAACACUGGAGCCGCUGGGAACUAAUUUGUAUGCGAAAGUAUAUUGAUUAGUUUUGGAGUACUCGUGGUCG
- details: 30 °C
property label: self-splicing fitness (ln)

Previously resolved entries follow.
sequence string | result
CAGAAGCAAUAUUACGCGGA | -3.15
CCCCAGCAAUAUUACGUCUC | -3.78
CUACAGCAAUAUUACGAUGC | -3.88
GGGCAGCAAUAUUACGUGGC | -3.12
AUGUAGCAAUAUUACGAAGC | -3.22
AGACAGCAAUAUUACGACCG | -1.4
CCCCAGCAAUAUUACGGGGU | -3.9
CCUUAGCAAUAUUACGGUAC | -4.06
UAUAAGCAAUAUUACGAGUC | -1.69
CAUCAGCAAUAUUACGAUUC | -1.62

Prompt line: Value lookup for self-splicing fitness (ln); key = UGUAAGCAAUAUUACGACUC
Response line: -1.52

Prompt line: Please answer likewise for AUACAGCAAUAUUACGCCCG
Response line: -0.847

Prompt line: Also need AUAGAGCAAUAUUACGGUCA , thanks.
Response line: -1.48

Prompt line: And GAACAGCAAUAUUACGCAGU ?
Response line: -3.37

Prompt line: Next: AUCGAGCAAUAUUACGUCGG
Response line: -2

Prompt line: Okay, and GUUCAGCAAUAUUACGGCGU ?
Response line: -0.298

Prompt line: # iterate: GCUCAGCAAUAUUACGCACC
Response line: -1.94

Prompt line: Next entry: GCAGAGCAAUAUUACGCUGA
Response line: -2.11

Prompt line: Then AUGAAGCAAUAUUACGUGCC ?
Response line: -0.735

Prompt line: And the next one, UAAAAGCAAUAUUACGGGGG ?
Response line: -2.62

Prompt line: Same for UAACAGCAAUAUUACGUCGA
Response line: -1.03

Prompt line: Here is the next sequence: UGUAAGCAAUAUUACGAUUG
Response line: -1

Prompt line: How about this sequence: CGGUAGCAAUAUUACGUCCA
Response line: 0.282

Prompt line: Again, but for GGCGAGCAAUAUUACGUGGG
Response line: -3.57

Prompt line: Also UCAUAGCAAUAUUACGGAGC ?
Response line: -2.3

Prompt line: What do we get for CGGUAGCAAUAUUACGCGCA ?
Response line: -1.16

Prompt line: Another sequence to check: GGGAAGCAAUAUUACGUAAG
Response line: -1.09

These entries and their values trace back to the supplement of paper PMC7877785.
